Source: ChEMBL document CHEMBL3885861

# Organism: Rattus norvegicus
# Experiment Summary: Open TG-GATES - Regimen: Daily Repeat
# Format: toxicity, organism-based, Sprague-Dawley
# Design: regimen Daily Repeat, gender Male, age 6 weeks
# Cond: in vivo, po, 0 mg/kg, […], tissue Plasma, route gavage, dose level Control, time 28 day
Recorded Metric: TP (g/dL)
Give the value in g/dL but do not write g/dL after it.

## Input State the recorded TP for this entry: O=P1(N(CCCl)CCCl)NCCCO1 (stereo unspecified) [CYCLOPHOSPHAMIDE ANHYDROUS]
## Output 6.2

## Input What do we get for Cn1c(=O)c2c(ncn2C)n(C)c1=O [CAFFEINE] ?
## Output 6.1

## Input What about this compound? Cc1cccc(Nc2cc(Cl)nc(SCC(=O)O)n2)c1C [PIRINIXIC ACID]
## Output 6.4

## Input // same read-out, input: COc1ccc(Cl)cc1C(=O)NCCc1ccc(S(=O)(=O)NC(=O)NC2CCCCC2)cc1 [GLYBURIDE]
## Output 5.9

## Input Also Cn1cnc([N+](=O)[O-])c1Sc1ncnc2nc[nH]c12 [AZATHIOPRINE] ?
## Output 6

## Input Also need C=CCO [ALLYL ALCOHOL] , thanks.
## Output 6.2

---

# Organism: Rattus norvegicus
# Experiment Summary: Open TG-GATES - Regimen: Single
# Assay type: toxicity, organism-based, Sprague-Dawley
# Set-up: regimen Single, gender Male, age 6 weeks
# Cond: in vivo, po, 0 mg/kg, 9 h, tissue Kidney, route gavage, dose level Control
Recorded Metric: KIDNEY_R (g)
Report as a plain number; the unit g is understood.

## Input Which KIDNEY_R is reported for this compound? COc1ccc(Cl)cc1C(=O)NCCc1ccc(S(=O)(=O)NC(=O)NC2CCCCC2)cc1 [GLYBURIDE]
## Output 0.9

## Input Note, next up: CNCCC(Oc1ccc(C(F)(F)F)cc1)c1ccccc1.Cl (stereo unspecified) [FLUOXETINE HYDROCHLORIDE]
## Output 1

## Input Item: Cc1cccc(Nc2cc(Cl)nc(SCC(=O)O)n2)c1C
## Output 0.9

## Input Note, next up: COc1ccc(O)c(C(C)(C)C)c1.COc1ccc(O)cc1C(C)(C)C [BUTYLATED HYDROXYANISOLE]
## Output 0.8

## Input Field entry: S=C=Nc1cccc2ccccc12 [1-NAPHTHYLISOTHIOCYANATE]
## Output 1

## Input Param item: CS(=O)(=O)Nc1ccc([N+](=O)[O-])cc1Oc1ccccc1 [NIMESULIDE]
## Output 1

## Input Next compound: Cc1cnc(NC(=O)C2=C(O)c3ccccc3S(=O)(=O)N2C)s1
## Output 1

## Input Now the same for O=C1CN(/N=C/c2ccc(-c3ccc([N+](=O)[O-])cc3)o2)C(O)=N1
## Output 0.9

## Input Request: Cn1cnc([N+](=O)[O-])c1Sc1ncnc2nc[nH]c12
## Output 0.9

## Input Try this compound too: O=C1NC(=O)C(c2ccccc2)(c2ccccc2)N1
## Output 0.9

## Input Request: C=CCO
## Output 0.9

---

# Species: Rattus norvegicus
# Experiment Summary: Open TG-GATES - Regimen: Single
# Assay type: toxicity, organism-based, Sprague-Dawley
# Set-up: regimen Single, gender Male, age 6 weeks
# Cond: in vivo, po, 0 mg/kg, 9 h, tissue Blood, route gavage, dose level Control
For each entry below, report its Mono value.
Value expressed in %; do not type the unit.

## Input Reported Mono for COc1ccc(Cl)cc1C(=O)NCCc1ccc(S(=O)(=O)NC(=O)NC2CCCCC2)cc1 [GLYBURIDE] : what is it?
## Output 2.2

## Input Next entry: Cc1cccc(Nc2cc(Cl)nc(SCC(=O)O)n2)c1C
## Output 2.6

## Input Also, C=CCO please.
## Output 3.2

## Input Similarly, Cc1cnc(NC(=O)C2=C(O)c3ccccc3S(=O)(=O)N2C)s1 ?
## Output 3

## Input Quick one: CS(=O)(=O)Nc1ccc([N+](=O)[O-])cc1Oc1ccccc1 [NIMESULIDE]
## Output 9

## Input Param item: O=C1CN(/N=C/c2ccc(-c3ccc([N+](=O)[O-])cc3)o2)C(O)=N1
## Output 9.8

## Input Another compound to look at: O=P1(N(CCCl)CCCl)NCCCO1 (stereo unspecified) [CYCLOPHOSPHAMIDE ANHYDROUS]
## Output 1.8

## Input Quick one: Cn1cnc([N+](=O)[O-])c1Sc1ncnc2nc[nH]c12
## Output 2

## Input Likewise for S=C=Nc1cccc2ccccc12 [1-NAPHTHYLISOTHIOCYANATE] ?
## Output 2.2

## Input Same for COc1ccc(O)c(C(C)(C)C)c1.COc1ccc(O)cc1C(C)(C)C [BUTYLATED HYDROXYANISOLE]
## Output 2.8

## Input Next entry: O=C1NC(=O)C(c2ccccc2)(c2ccccc2)N1
## Output 2.6

---

# Species on record: Rattus norvegicus
# Experiment Summary: Open TG-GATES - Regimen: Daily Repeat
# Format: toxicity, organism-based, Sprague-Dawley
# Design: regimen Daily Repeat, gender Male, age 6 weeks
# Cond: in vivo, po, 0 mg/kg, […], tissue Blood, route gavage, dose level Control, time 28 day
Recorded Metric: Eos (%)
Supply the numeric figure in %, leaving out any unit text.

## Input For COc1ccc(Cl)cc1C(=O)NCCc1ccc(S(=O)(=O)NC(=O)NC2CCCCC2)cc1 [GLYBURIDE] , what is its reported Eos?
## Output 1

## Input Now this one: O=P1(N(CCCl)CCCl)NCCCO1 (stereo unspecified) [CYCLOPHOSPHAMIDE ANHYDROUS]
## Output 1

## Input Note, next up: Cc1cccc(Nc2cc(Cl)nc(SCC(=O)O)n2)c1C [PIRINIXIC ACID]
## Output 1.2

## Input Moving on to the next compound: O=C1CN(/N=C/c2ccc(-c3ccc([N+](=O)[O-])cc3)o2)C(O)=N1 [DANTROLENE]
## Output 1.4

## Input Next compound up: CS(=O)(=O)Nc1ccc([N+](=O)[O-])cc1Oc1ccccc1 [NIMESULIDE]
## Output 1.4

## Input Same question for O=C1NC(=O)C(c2ccccc2)(c2ccccc2)N1 [PHENYTOIN] please.
## Output 1

---

# Organism: Rattus norvegicus
# Experiment Summary: Open TG-GATES - Regimen: Single
# Assay type: toxicity, organism-based, Sprague-Dawley
# Set-up: regimen Single, gender Male, age 6 weeks
# Cond: in vivo, po, 0 mg/kg, 3 h, tissue Blood, route gavage, dose level Control
Provide the recorded Fbg for the entries that follow.
The response must be a number in mg/dL with no trailing unit.

## Input Which Fbg is reported for this compound? C=CCO
## Output 226.4

## Input O=C1NC(=O)C(c2ccccc2)(c2ccccc2)N1 ?
## Output 267

## Input COc1ccc(Cl)cc1C(=O)NCCc1ccc(S(=O)(=O)NC(=O)NC2CCCCC2)cc1 [GLYBURIDE] ?
## Output 221.2

## Input Similarly, COc1ccc(O)c(C(C)(C)C)c1.COc1ccc(O)cc1C(C)(C)C [BUTYLATED HYDROXYANISOLE] ?
## Output 265.2

## Input Proceed to Cn1cnc([N+](=O)[O-])c1Sc1ncnc2nc[nH]c12
## Output 288.2

## Input Then CS(=O)(=O)Nc1ccc([N+](=O)[O-])cc1Oc1ccccc1 [NIMESULIDE] ?
## Output 212

## Input What would you report for O=C1CN(/N=C/c2ccc(-c3ccc([N+](=O)[O-])cc3)o2)C(O)=N1 ?
## Output 209.6

## Input // next record Cc1cnc(NC(=O)C2=C(O)c3ccccc3S(=O)(=O)N2C)s1
## Output 222.8

## Input // same read-out, input: S=C=Nc1cccc2ccccc12 [1-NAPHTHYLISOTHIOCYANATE]
## Output 223

## Input Same question for Cc1cccc(Nc2cc(Cl)nc(SCC(=O)O)n2)c1C please.
## Output 280

---

# Species on record: Rattus norvegicus
# Experiment Summary: Open TG-GATES - Regimen: Single
# Assay type: toxicity, organism-based, Sprague-Dawley
# Set-up: regimen Single, gender Male, age 6 weeks
# Cond: in vivo, po, 0 mg/kg, 24 h, tissue Plasma, route gavage, dose level Control
Recorded Metric: Na (meq/L)
Note: unit meq/L is implicit; provide only the numeric part.

## Input Record request: Na value, item COc1ccc(O)c(C(C)(C)C)c1.COc1ccc(O)cc1C(C)(C)C [BUTYLATED HYDROXYANISOLE]
## Output 143.6

## Input And what about the compound O=C1NC(=O)C(c2ccccc2)(c2ccccc2)N1 ?
## Output 142.6

## Input What would you report for S=C=Nc1cccc2ccccc12 [1-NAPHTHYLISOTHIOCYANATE] ?
## Output 141.6

## Input Record: O=C1CN(/N=C/c2ccc(-c3ccc([N+](=O)[O-])cc3)o2)C(O)=N1
## Output 141.6

## Input Moving on to the next compound: CNCCC(Oc1ccc(C(F)(F)F)cc1)c1ccccc1.Cl (stereo unspecified) [FLUOXETINE HYDROCHLORIDE]
## Output 138.3

## Input Do the same for CS(=O)(=O)Nc1ccc([N+](=O)[O-])cc1Oc1ccccc1 [NIMESULIDE] please
## Output 139.6

## Input Likewise for Cc1cccc(Nc2cc(Cl)nc(SCC(=O)O)n2)c1C ?
## Output 142.6

## Input Next up: COc1ccc(Cl)cc1C(=O)NCCc1ccc(S(=O)(=O)NC(=O)NC2CCCCC2)cc1 [GLYBURIDE]
## Output 141.2

## Input Next compound up: C=CCO
## Output 140.8

## Input Cn1cnc([N+](=O)[O-])c1Sc1ncnc2nc[nH]c12 , same question.
## Output 143.2

## Input Then this compound: Cc1cnc(NC(=O)C2=C(O)c3ccccc3S(=O)(=O)N2C)s1
## Output 142.4
